tested on: MCF-7; assay: DTP human tumor cell line screen, MCF-7; format: cell-based; details: 100 μM; 48 hours; percent growth of control
measure: % T/C Breast (MCF-7) (%)
State the answer as a number, implicitly in %.

Challenge: # return recorded % T/C Breast (MCF-7) for input CSc1ccc(-c2nc3[nH]nc(N)c3c(=O)n2-c2ccc(C(C)(C)C)cc2)cc1
Response given: 0

Challenge: Give % T/C Breast (MCF-7) for CCc1ccc(-n2c(-c3ccc(SC)cc3)nc3[nH]nc(N)c3c2=O)cc1
Response given: 22

Challenge: For CSc1ccc(-n2c(-c3ccc(C(F)(F)F)cc3)nc3[nH]nc(N)c3c2=O)cc1 , write its % T/C Breast (MCF-7).
Response given: 0

Challenge: Check the records and state % T/C Breast (MCF-7) for CSc1ccc(-c2nc3[nH]nc(N)c3c(=O)n2-c2ccc(C)c(C)c2)cc1
Response given: 31

Challenge: Return % T/C Breast (MCF-7) (reported value) for this molecule: CSc1ccc(-c2nc3[nH]nc(N)c3c(=O)n2-c2ccc(Cl)cc2)cc1
Response given: 9

Challenge: Entry CSc1ccc(-n2c(-c3ccc(Cl)cc3)nc3[nH]nc(N)c3c2=O)cc1 needs its % T/C Breast (MCF-7) filled in; supply it.
Response given: 26

====

Molecular target: COX-2 (Homo sapiens)
Construct: Fresh blood was collected in tubes containing sodium heparin by vein puncture from healthy male volunteers; endogenous in cells; host or cells: human whole blood from healthy male volunteers, aspirin-pretreated and LPS-stimulated
Sequence (P35354 18-604): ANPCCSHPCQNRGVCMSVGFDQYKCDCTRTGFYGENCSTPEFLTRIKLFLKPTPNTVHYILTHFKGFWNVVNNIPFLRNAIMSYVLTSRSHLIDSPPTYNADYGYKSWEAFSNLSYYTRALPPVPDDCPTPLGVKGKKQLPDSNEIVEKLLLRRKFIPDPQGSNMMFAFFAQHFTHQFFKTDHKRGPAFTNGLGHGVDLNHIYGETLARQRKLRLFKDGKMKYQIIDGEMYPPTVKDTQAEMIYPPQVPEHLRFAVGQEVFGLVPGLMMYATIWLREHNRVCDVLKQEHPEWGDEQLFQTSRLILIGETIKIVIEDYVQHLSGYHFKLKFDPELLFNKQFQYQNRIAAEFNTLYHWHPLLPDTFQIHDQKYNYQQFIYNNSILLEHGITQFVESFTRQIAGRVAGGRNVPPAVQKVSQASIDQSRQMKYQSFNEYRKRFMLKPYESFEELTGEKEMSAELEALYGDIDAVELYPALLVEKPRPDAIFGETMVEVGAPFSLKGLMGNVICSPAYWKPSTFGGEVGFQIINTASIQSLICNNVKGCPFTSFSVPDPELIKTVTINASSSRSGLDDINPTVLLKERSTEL
Assay: Human whole blood assay (LPS-induced PGE2, COX-2 inhibition)
Type: cell-based
Conditions: 0.25 μM, LPS stimulated
measure: inhibition at 0.25 µM
Just so you know, I need the unit written after the number.

Challenge: State its inhibition at 0.25 µM: Cc1ccc(-n2c(-c3ccccc3)nc3[nH]nc(N)c3c2=O)cc1
Response given: 31.4%

Challenge: Please indicate inhibition at 0.25 µM recorded for CSc1ccc(-c2nc3[nH]nc(N)c3c(=O)n2-c2ccc(C)c(C)c2)cc1
Response given: 21.9%

Challenge: Supply recorded inhibition at 0.25 µM for CSc1ccc(-n2c(-c3ccc(Cl)cc3)nc3[nH]nc(N)c3c2=O)cc1 here.
Response given: 28.3%

Challenge: Please give measured inhibition at 0.25 µM of the following entry: CSc1ccc(-n2c(-c3ccc(C)cc3)nc3[nH]nc(N)c3c2=O)cc1
Response given: 26.8%

Challenge: Please give measured inhibition at 0.25 µM of the following entry: CCOc1ccc(-n2c(-c3ccc(SC)cc3)nc3[nH]nc(N)c3c2=O)cc1
Response given: 20.2%

Challenge: # return recorded inhibition at 0.25 µM for entry Nc1n[nH]c2nc(-c3ccccc3)n(-c3ccc(F)cc3)c(=O)c12
Response given: 26.2%

Challenge: Please look at this compound and report its inhibition at 0.25 µM: CSc1ccc(-n2c(-c3ccc(C(F)(F)F)cc3)nc3[nH]nc(N)c3c2=O)cc1
Response given: 19.4%

Challenge: Hello, please tell me recorded inhibition at 0.25 µM for this one: CSc1ccc(-c2nc3[nH]nc(N)c3c(=O)n2-c2ccc(C)cc2)cc1
Response given: 20.3%

Challenge: Identify measured inhibition at 0.25 µM associated with Cc1ccc(-n2c(-c3ccc(S(C)(=O)=O)cc3)nc3[nH]nc(N)c3c2=O)cc1
Response given: 19.3%

Challenge: Identify measured inhibition at 0.25 µM associated with CSc1ccc(-c2nc3[nH]nc(N)c3c(=O)n2-c2ccc(C(C)(C)C)cc2)cc1
Response given: 18.6%
